Reference source for all entries: PubChem BioAssay (NCATS)

Assay: NFAT Signaling Pathway (AID 444);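 further: carbachol stimulus at about its EC50 of 1 µM final; on the % scale 0 is the no-effect control and ±100 the full control effect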
Conditions: Jurkat NFAT-bla M1, carbachol, beta-lactamase ratio, 5 h; at 17.2 µM (top of the series) unless noted
Records with an inconclusive call do not appear.
Decide using activity change, negative = inhibition: a value greater than or equal to -20% is label 1, a smaller one is label 0.

CSc1nc(N)c(C#N)c(-c2ccccc2Cl)c1C#N : label 1
C=CCn1c(SCC(=O)NC23CC4CC(CC(C4)C2)C3)nc(O)cc1=O : label 1
Cc1nnc(SCC(=O)N2CCC(C(N)=O)CC2)s1 : label 1
COc1cccc(N2CCN(C(=O)c3ccc(=O)oc3)CC2C)c1 (configuration not stated) : label 0
CC(=O)N1CCC2(CC1)C(C#N)=C(N)Oc1n[nH]c(C(F)(F)F)c12 : label 0
CCOC(=O)CSC1=C(C#N)C(=O)NC(c2ccc(OC)c(OC)c2)S1 (configuration not stated) : label 0

Query: Is it the case that S=C(N=Nc1ccccc1)NNc1ccccc1 has activity change, negative = inhibition reaching or exceeding -20%?
Result: label 1
